target: human GLP-1R (Homo sapiens); construct: host or cells: HEK293; test: GLP-1R cAMP assay (Example B1a, HTRF, 30 min at room temperature); assay type: cell-based; settings: cAMP accumulation in HEK293 expressing human GLP-1R, no BETP, 30 min room temperature (Method B1a, compounds ID 1-609), Table 1; read-out: EC50
Sequence (P43220 24-463): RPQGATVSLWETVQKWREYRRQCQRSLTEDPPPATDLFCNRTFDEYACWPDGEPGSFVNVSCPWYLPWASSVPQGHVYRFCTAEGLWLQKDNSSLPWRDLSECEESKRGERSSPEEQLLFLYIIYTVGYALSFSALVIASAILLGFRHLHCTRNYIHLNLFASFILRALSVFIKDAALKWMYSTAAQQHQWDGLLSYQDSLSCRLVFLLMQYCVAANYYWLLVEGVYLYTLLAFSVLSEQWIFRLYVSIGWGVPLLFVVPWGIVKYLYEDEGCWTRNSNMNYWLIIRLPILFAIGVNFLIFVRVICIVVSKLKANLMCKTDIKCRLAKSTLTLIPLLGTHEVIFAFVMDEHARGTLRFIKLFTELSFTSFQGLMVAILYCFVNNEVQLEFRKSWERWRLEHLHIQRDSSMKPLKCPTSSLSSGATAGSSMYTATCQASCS
READOUT_LABEL: EC50

Worked cases, EC50 given:
Identify the measured EC50 of Cc1cc(-n2nc3c(c2-n2ccn(-c4ccc5c(cnn5C)c4F)c2=O)[C@@H]2CC[C@H](C3)N2C(=O)c2nc3cc(C4CCOC(C)(C)C4)ccc3n2C2(c3noc(=O)[nH]3)CC2)cc(C)c1F (stereo partly shown) for human GLP-1R (Homo sapiens).
> 10 µM

# query: EC50 | item Cc1cc(-n2nc3c(c2-n2ccn(-c4ccc5c(cnn5C)c4F)c2=O)[C@@H]2CCC[C@H](C3)N2S(=O)(=O)c2cc3cc([C@H]4CCOC5(CC5)C4)ccc3n2[C@]2(c3noc(=O)[nH]3)C[C@@H]2C)cc(C)c1F | system: human GLP-1R (Homo sapiens)
≥ 10 µM

Lab note: need EC50 for Cc1cc(-n2nc3c(c2-n2ccn(-c4ccc5c(cnn5C)c4F)c2=O)[C@@H]2CC[C@H](C3)N2C(=O)c2cc3cc(C4CCOC5(C4)CN(C)C5)ccc3n2C2(c3noc(=O)[nH]3)CC2)cc(C)c1F (stereo partly shown) on human GLP-1R (Homo sapiens), anyone have it?
> 10 µM

New cases:
Which measured EC50 belongs to Cc1cc(-n2nc3c(c2-n2ccn(-c4ccc5c(cnn5C)c4F)c2=O)[C@@H]2CC[C@H](C3)N2C(=O)c2cc3nc([C@@H]4CCOC(C)(C)C4)ccc3n2[C@@]2(c3noc(=O)[nH]3)C[C@@H]2C)cc(C)c1F , tested on human GLP-1R (Homo sapiens)?
> 10 µM
